Give measured growth for each item. Keep answers brief.
- Tested on: HT29 colon
- Protocol details: NCI-60 one-dose screen, 48 h (100 = growth as untreated, 0 = no growth, -100 = all killed)
- Run conditions: 10 µM
About 83,000 compounds went through this panel and 20% of them were active in at least one assay; those are over-represented in the sample as a whole.
Write the number in % without appending the unit.

QUERY: Note growth for the compound shown: COc1cccc(-c2nc3sccn3c2-c2cccc(S(C)(=O)=O)c2)c1
RESULT: 118

QUERY: Specify reported growth for the compound shown: CCCc1cn(CC(=O)Nc2nc3ccccc3s2)nn1
RESULT: 104

QUERY: Indicate the recorded growth value for this compound: COc1ccc(-c2nn(-c3cccc(Cl)c3)cc2C=C(C#N)C#N)cc1
RESULT: -14.9

QUERY: Give me measured growth, please, for this compound: COc1ccc(NC(=O)C2CC3C=CC2C3)c([N+](=O)[O-])c1 (stereo not given)
RESULT: 101

QUERY: For the compound C=C(C)[C@@H]1CC[C@]2(COCCC#N)CC[C@]3(C)[C@H](CC[C@@H]4[C@@]5(C)Cc6c([nH]c7ccccc67)C(C)(C)[C@@H]5CC[C@]43C)[C@@H]12 , give its measured growth value.
RESULT: 89.7

----------
- System: HS 578T breast
- Protocol details: NCI-60 one-dose screen, 48 h (100 = growth as untreated, 0 = no growth, -100 = all killed)
- Run conditions: 10 µM
This is part of a sample that, as a whole, favours compounds with a hit. Of some 83,000 tested, about 20% had one in any assay. Activity calls are given as the source filed them. How the source made its calls: active means growth percent below 10; inactive means the rest.
Readout label: growth

QUERY: For the molecule c1ccc(CSc2ncccc2-c2nnc(SCCN3CCOCC3)o2)cc1 , report growth.
RESULT: 133% (inactive)

QUERY: For the molecule C=C(NC(=O)C(=C)NC(=O)c1csc(C2=NC3c4csc(n4)C4NC(=O)c5csc(n5)C(C(C)(O)C(C)O)NC(=O)C5CSC(=N5)C(=CC)NC(=O)C(C(C)O)NC(=O)c5csc(n5)C3(CC2)NC(=O)C(C)NC(=O)C(=C)NC(=O)C(C)NC(=O)C(C(C)CC)NC2C=Cc3c(C(C)O)cc(nc3C2O)C(=O)OC4C)n1)C(N)=O (centres undefined) , give its reported growth.
RESULT: 42.5% (inactive)

QUERY: Indicate the recorded growth value for this molecule: CC(C)(C)OC(=O)CN1CCc2c(sc3ncnc(N/N=C/c4cccc5ccccc45)c23)C1
RESULT: 21.5% (inactive)

QUERY: Please give measured growth of the following entry: CN(C)CCOc1ccc(-c2nc3sccn3c2-c2ccnc(S(C)(=O)=O)n2)cc1
RESULT: 101% (inactive)

QUERY: Please give the documented growth of CNS(=O)(=O)Oc1ccc(-c2sc3cc(OS(=O)(=O)NC)ccc3c2C(=O)c2ccc(OCCN3CCCCC3)cc2)cc1
RESULT: 58.9% (inactive)

QUERY: Recall and state the measured growth for CC(=O)N[C@H](C(=O)N[C@@H](CCCNC(=N)N)C(=O)N[C@@H](CCCCN)C(=O)N[C@@H](CCCNC(=N)N)C(=O)N[C@]1(C)CCC/C=C\CCC[C@@](C)(C(=O)N[C@@H](CC(C)C)C(=O)N[C@@H](CC(C)C)C(=O)N[C@@H](CCC(N)=O)C(=O)N[C@@H](CCC(=O)O)C(=O)N[C@@H](CCCNC(=N)N)C(=O)N[C@@H](CCC(=O)O)C(=O)N[C@@H](CC(C)C)C(=O)N[C@H](C(=O)N[C@@H](CCC(=O)O)C(N)=O)C(C)C)NC(=O)[C@H](CCCNC(=N)N)NC(=O)[C@H](CC(C)C)NC1=O)C(C)C .
RESULT: 119% (inactive)

QUERY: Complete the entry with growth for COc1ccc(-c2nnc(SCC(=O)Nc3ccc(C(=O)/C=C/c4ccccc4)cc3)n2-c2ccccc2)cc1OC
RESULT: 83.1% (inactive)

QUERY: Query growth for Cc1cc(Br)nnc1Br
RESULT: 110% (inactive)

QUERY: Return growth (reported value) for this molecule: COc1cc2ncnc(NC3CCC(O)CC3)c2cc1OC (centres undefined)
RESULT: 95.5% (inactive)

QUERY: Return the recorded growth value; entry: COc1cc2cc(Oc3ccc(NC(=O)c4ccc(Cl)c(C(F)(F)F)c4)cc3)c(C)nc2cc1OC
RESULT: 41.6% (inactive)

QUERY: Tell us which growth value is on record for COc1cc(-c2nn(-c3ccc(NC(=O)NCCNS(=O)(=O)c4ccc(F)cc4)cc3)cc2-c2ccncc2)ccc1Cl
RESULT: 21.6% (inactive)

QUERY: Fill in reported growth for this entry: CCN(CC)CCCC(C)Nc1c2ccc(Cl)cc2nc2ccc(OC)cc12 (centres undefined)
RESULT: 57.4% (inactive)

QUERY: Give growth for the following molecule: O=C(CNc1nnc(-c2cccnc2SCc2ccccc2)s1)Nc1nc(Cl)cc(Cl)n1
RESULT: 130% (inactive)

QUERY: Tell me its growth given CCN(CC)CC(=O)N(CC)c1ccc(C)c(Cl)c1 as the entry.
RESULT: 100% (inactive)

----------
- Tested on: NCI-H23 lung
- Protocol details: NCI-60 one-dose screen, 48 h (100 = growth as untreated, 0 = no growth, -100 = all killed)
- Run conditions: 10 µM
Compounds without any hit were thinned out: in the full panel of roughly 83,000, 20% have a hit.
Readout label: growth (%)
Supply the numeric figure in %, leaving out any unit text.

QUERY: Entry O=C1c2ccccc2C(=O)c2c1ccc(C(Br)Br)c2Cl needs its growth filled in; supply it.
RESULT: 8.26

QUERY: Name the recorded growth of the item CC(=O)Nc1cc2c(cc1Cl)Cc1cc(Cl)ccc1-2 in your answer.
RESULT: 77.1

QUERY: Determine from records and report growth for Cc1ccc(-n2nnnc2N)c(C)c1
RESULT: 98.1

QUERY: Return value of growth for input O=C(Nc1cc([N+](=O)[O-])c2[nH]c(=O)c3ccccc3c2c1)C(F)(F)F , no commentary.
RESULT: 81.8

QUERY: Provide only the value of recorded growth for COc1ccccc1-n1c(-c2sc(NC(C)=O)nc2C)n[nH]c1=S
RESULT: 101

QUERY: Return the recorded growth value; entry: O=C(Nc1ccc(NS(=O)(=O)c2ccc(F)cc2)cc1)C12CC3CC(CC(C3)C1)C2
RESULT: 94.9

QUERY: Check the records and state growth for CCOC(=O)c1sc2ncnc(Nc3ccc4c(cnn4C(=O)Nc4ccccc4)c3)c2c1C
RESULT: 60.6

QUERY: Determine its reported growth: CC(C)N(CCOc1cccc(-c2nc3sccn3c2-c2ccnc(S(C)(=O)=O)n2)c1)C(C)C
RESULT: 96.1

QUERY: Specify measured growth for S=C(SSC(=S)N(c1ccccc1)c1ccccc1)N(c1ccccc1)c1ccccc1 .
RESULT: 100

QUERY: Determine from records and report growth for Clc1ccc(C2=NN=C3C(Cc4ccccc4)=Nc4ccccc4N3C2)cc1
RESULT: 90

QUERY: For the compound CCN(CC)CCOc1cccc2c1C(=O)c1cccc(OCCN(CC)CC)c1C2=O , report growth.
RESULT: 42.2

QUERY: Provide measured growth value, entry: OCC1OC(n2ccc3c(NO)ncnc32)C(O)C1O (stereo not given)
RESULT: -56.3

QUERY: # return recorded growth for entry CCCCCOC(=O)Nc1nc(=O)n(C2O[C@H](C)[C@@H](O)[C@H]2O)cc1F (stereo not given in full)
RESULT: 95.3

QUERY: Read off the recorded growth for O=C(CN(C1CCCCC1)C1CCCCC1)Nc1ccc(S(=O)(=O)c2ccc(NC(=O)CN(C3CCCCC3)C3CCCCC3)cc2)cc1
RESULT: -36.6

QUERY: State its growth: CN(C)c1nc(N)c2nccnc2n1
RESULT: 87.9

QUERY: Determine its reported growth: Cc1cc(SCc2ccccc2)nc(N)n1
RESULT: 97.3

QUERY: Input O=C(/C=C/C=C/c1c(C2CC2)nc2ccccc2c1-c1ccc(F)cc1)c1cccs1 , output reported growth.
RESULT: 20.7

QUERY: Give growth for COc1cc(-c2nn(-c3ccc(NC(=O)NCCCNC(=O)c4ccccc4)cc3)cc2-c2ccncc2)ccc1Cl
RESULT: 28.8

QUERY: State, in one line, measured growth of O=C(O)COc1c(Cl)cc([N+](=O)[O-])cc1Cl
RESULT: 99

QUERY: Query growth for COc1cc(C(=O)n2nc(-c3cc(OC)c(OC)c(OC)c3)nc2N)cc(OC)c1OC
RESULT: 92.9

QUERY: State its growth for this compound: O=C1/C=C/[C@@H](O)[C@@H]2C[C@@H](O)C[C@H]2/C=C/CCC[C@H](CCc2ccc(NC(=S)Nc3ccc4c(c3)C(=O)OC43c4ccc(O)cc4Oc4cc(O)ccc43)cc2)O1
RESULT: 4.65

QUERY: Identify growth associated with the compound O=C(O)c1cc([N+](=O)[O-])ccc1Oc1ccccc1
RESULT: 101

QUERY: For CC1(C)N=C(N)N=C(N)N1c1cccc(C#N)c1 , write its growth.
RESULT: 75.2

QUERY: Supply reported growth belonging to this compound: CC1=NN(C(=O)c2nn(-c3ccc(Cl)cc3)cc2O)C(=O)C1
RESULT: 52.5

QUERY: Using the record for O=C(CCCNC(=O)c1nc(-c2ccccc2)n(-c2ccccc2)n1)NO , state its measured growth.
RESULT: 101

QUERY: State its growth: CCN(CC)CCCC(C)Nc1c2ccc(Cl)cc2nc2ccc(OC)cc12 (stereo not given)
RESULT: 44.7

QUERY: Identify the reported growth for the following entry. COc1cc(CNC(=O)C2CSC3(C)c4ccccc4C(=O)N23)cc(OC)c1OC (stereo not given)
RESULT: 96.9

QUERY: Note down growth recorded for CN(C)CCOc1ccc(-c2nc3sccn3c2-c2ccnc(S(C)(=O)=O)n2)cc1
RESULT: 103

QUERY: Give the reported growth for this compound. O=c1cn[nH]c2ccc(Br)cc12
RESULT: 97.6

QUERY: Look up growth of CN(C)CCCOc1ccc(OCCCN(C)C)c2c1C(=O)c1ccccc1C2=O and report it.
RESULT: -19.6

QUERY: Note growth for the compound shown: O=C(Nc1ccc(OCc2nnc(-c3ccc(Cl)cc3)o2)c(F)c1)Nc1ccc(Cl)c(C(F)(F)F)c1
RESULT: -5.04

QUERY: Give the measured growth for O=C(N/N=C/c1cc([N+](=O)[O-])ccc1O)c1cccc2ccccc12
RESULT: 45.3

QUERY: Give recorded growth. C[C@H]1[C@H](OC(=O)CCC(=O)O)O[C@@H]2O[C@]3(C)CC[C@H]4[C@H](C)CC[C@@H]1[C@@]24OO3
RESULT: 19.9

QUERY: Fill in reported growth for this entry: C=CCn1c(SCC(=O)Nc2ccc(C(=O)/C=C/c3ccc(OC)cc3)cc2)nnc1-c1ccc(OC)c(OC)c1
RESULT: 89.3

QUERY: Specify growth for CC(C)(C)c1ccc(S(=O)(=O)N[C@H]2CC[C@H]3[C@@H]4CCc5cc(O)ccc5[C@H]4CC[C@]23C)cc1 and stop.
RESULT: 50.3

QUERY: Return growth for the following compound: Cc1cc(NC(=O)c2ccc(C)c(Nc3nccc(-c4cccnc4)n3)c2)cc(-n2cnc(C)c2)c1
RESULT: 67.6

QUERY: Give reported growth value for O=C1c2c(c(=O)[nH]c3ccccc23)CCN1Cc1ccccc1
RESULT: 102

QUERY: Answer with the recorded growth of CNC(=O)c1cc(Oc2ccc3c(c2)sc2nc(-c4ccc(NC(=O)Nc5ccc(Cl)c(C(F)(F)F)c5)cc4)cn23)ccn1 only.
RESULT: 84.7

QUERY: Report growth, nothing else, for this compound: NC(N)=N/N=C(\c1ccccc1)C(O)c1ccccc1 (stereo not given)
RESULT: 101

QUERY: Given the compound O=c1c(Br)ccc(Br)cc1Br , write its reported growth.
RESULT: -51.8
